- Test system: E. coli cells expressing an HPPD polypeptide
- assayComment: Brown color bioassay in liquid culture, residual brown color formation (BCF), OD440 after 96 hours
- Assay type: cell-based
- recordedConditions: brown color formation with Cmpd. 1 (1000 μM) relative to without, after 96 hours
Residual BCF OD440nm [%] values by entry
Answer format: value, then unit.

See these solved cases before continuing.
molecule	Residual BCF OD440nm [%]
30 (protein, mutant HPPD polypeptide) MADLYENPMGLMGFEFIEFASPTPGTLEPIFEIMGFTKVATHRSKNVHLYRQGEINLILNNEPNSIASYFAAEHGPSVCGMAFRVKDSQKAYNRALELGAQPIHIDTGPMELNLPAIKGIGGAPLYLIDRFGEGSSIYDIDFVYLEGVERNPVGAGLKVIDHLTHNVYRGRMVYWANFYEKLFNFREARYFDIKGEYTGLTSKAMSAPDGMIRIPLNEESSKGAGQIEEFLMQFNGEGIQHVAFLTDDLVKTWDALKKIGMRFMTAPSDSYYEMLEGRLPDHGEPVDQLQARGILLDGSSVEGDKRLLLQIFSETLMGPVFFEFIQRKGDDGFGPHSFKVLFESKERDQVRRGVLTAD	56%
39 (protein, mutant HPPD polypeptide) MADLYENPMGLMGFEFIEFASPTPGTLEPIFEIMGFTKVATHRSKNVHLYRQGEINLILNNEPNSIASYFAAEHGPSVCGMAFRVKDSQKAYNRALELGAQPIHIDTGPMELNLPAIKGIGGAPLYLIDRFGEGSSIYDIDFVYLEGVERNPVGAGLKVIDHLTHNVYRGRMVYWANFYEKLFNFREARYFDIKGEYTGLTSKLMSAPDGMIRIPLNEESSKGAGQIEEFLMQFNGEGIQHVAFLTDDLVKTWDALKKIGMRFMTAPGDEYYEMLEGRLPDHGEPVDQLQARGILLDGSSVEGDKRLLLQIFSETLMGPVFFEFIQRKGDDGFGPDSFKVLFESVERDQVRRGVLTAD	55%
99 (protein, mutant HPPD polypeptide) MADLYENPMGLMGFEFIEFASPTPGTLEPIFEIMGFTKVATHRSKNVHLYRQGEINLILNNEPNSIASYFAAEHGPSVCGMAFRVKDSQKAYNRALELGAQPIHIDTGPMELNLPAIKGIGGAPLYLIDRFGEGSSIYDIDFVYLEGVERNPVGAGLKVIDHLTHNVYRGRMVYWANFYEKLFNFREARYFDIKGEYTGLTSKAMSAPDGMIRIPLNEESSKGAGQIEEFLMQFNGEGIQHVAFLTDDLVKTWDALKKIGMRFMTAPGDEYYEMLEGRLPDHGEPVDQLQARGILLDGSSVEGDKRLLLQIFSETLMGPVFFEFIQRKGDDGFGPDSVKRLFESVERDQVRRGVLTAD	87%

Exercise: Value lookup for Residual BCF OD440nm [%]; key = 76 (protein, mutant HPPD polypeptide) MADLYENPMGLMGFEFIEFASPTPGTLEPIFEIMGFTKVATHRSKNVHLYRQGEINLILNNEPNSIASYFAAEHGPSVCGMAFRVKDSQKAYNRALELGAQPIHIDTGPMELNLPAIKGIGGAPLYLIDRFGEGSSIYDIDFVYLEGVERNPVGAGLKVIDHLTHNVYRGRMVYWANFYEKLFNFREARYFDIKGEYTGLTSKAMSAPDGMIRIPLNEESSKGAGQIEEFLMQFNGEGIQHVAFLTDDLVKTWDALKKIGMRFMTAPGDRYYEMLEGRLPDHGEPVDQLQARGILLDGSSVEGDKRLLLQIFSETLMGPVFFEFIQRKGDDGFGPDSFKVLFESVERDQVRRGVLTAD
Solution: 58%
